Would you mind telling me the reported inhibition at 10 µM of each entry?
Biological target: NHE1 (Homo sapiens)
Construct: endogenous in cells; host or cells: MDA-MB-231
Assay: Plate-based NHE1 inhibition assay (BCECF pHi recovery, 96-well plate reader)
Assay type: cell-based
Details: 10 μM, MDA-MB-231 cells, plate reader
Write the value in % as a bare number.

Fill blank: measured inhibition at 10 µM of the molecule N=C(N)NC(=O)c1nc(-c2cc3ccccc3o2)c(N2CCCOCC2)nc1N is ____.
96

Fill blank: measured inhibition at 10 µM of the molecule N=C(N)NC(=O)c1nc(-c2cncnc2)c(N2CCCCCC2)nc1N is ____.
96

Fill blank: measured inhibition at 10 µM of the molecule N=C(N)NC(=O)c1nc(-c2cc3ccccc3o2)c(NC2CCCCCC2)nc1N is ____.
0

Fill blank: measured inhibition at 10 µM of the molecule N=C(N)NC(=O)c1nc(-c2cc3cc(Cl)ccc3o2)c(N2CCCCCC2)nc1N is ____.
0

Fill blank: measured inhibition at 10 µM of the molecule COc1ncc(-c2nc(C(=O)NC(=N)N)c(N)nc2N)cn1 is ____.
18

Fill blank: measured inhibition at 10 µM of the molecule N=C(N)NC(=O)c1nc(-c2cc3ncccc3o2)c(N)nc1N is ____.
31

Fill blank: measured inhibition at 10 µM of the molecule N=C(N)NC(=O)c1nc(-c2cnc(NCCO)nc2)c(N2CCCCCC2)nc1N is ____.
15

Fill blank: measured inhibition at 10 µM of the molecule N=C(N)NC(=O)c1nc(-c2cc3cc(Br)ccc3o2)c(N)nc1N is ____.
97

Fill blank: measured inhibition at 10 µM of the molecule N=C(N)NC(=O)c1nc(-c2cc3ncccc3o2)c(N2CCCCCC2)nc1N is ____.
100

Fill blank: measured inhibition at 10 µM of the molecule COc1ncc(-c2nc(C(=O)NC(=N)N)c(N)nc2N2CCCOCC2)cn1 is ____.
16

Fill blank: measured inhibition at 10 µM of the molecule CCN(c1nc(N)c(C(=O)NC(=N)N)nc1-c1cc2ccccc2o1)C(C)C is ____.
41

Fill blank: measured inhibition at 10 µM of the molecule N=C(N)NC(=O)c1nc(-c2cncnc2)c(N2CCCOCC2)nc1N is ____.
96

Fill blank: measured inhibition at 10 µM of the molecule N=C(N)NC(=O)c1nc(-c2cc3cc(F)ccc3o2)c(N)nc1N is ____.
75

Fill blank: measured inhibition at 10 µM of the molecule N=C(N)NC(=O)c1nc(Cl)c(N2CCCCCC2)nc1N [HMA, 5-(N,N-hexamethylene)amiloride, reference compound] is ____.
100

Fill blank: measured inhibition at 10 µM of the molecule COc1ccc2oc(-c3nc(C(=O)NC(=N)N)c(N)nc3N3CCCCCC3)cc2c1 is ____.
91

Fill blank: measured inhibition at 10 µM of the molecule Cc1ccc2oc(-c3nc(C(=O)NC(=N)N)c(N)nc3N3CCCCCC3)cc2c1 is ____.
100

Fill blank: measured inhibition at 10 µM of the molecule N=C(N)NC(=O)c1nc(-c2cc3ccccc3o2)c(N2CCCC2)nc1N is ____.
85

Fill blank: measured inhibition at 10 µM of the molecule N=C(N)NC(=O)c1nc(I)c(N)nc1N is ____.
86

###

Molecular target: urokinase from human kidney cells (human uPA) (Homo sapiens, UniProt P00749)
Construct: low molecular weight active human uPA; purchased Sigma-Aldrich U4010; host or cells: human kidney cells
Assay: uPA inhibition assay (fluorescence-based, purified enzyme)
Assay type: biochemical
Settings: purified enzyme, Z-Gly-Gly-Arg-AMC substrate; number in parentheses after value; read-out: uPA IC50
Would you mind telling me the reported pIC50 of each entry?
In textbook form, pIC50 equals minus log to base ten of the concentration in mol/L.

Fill blank: measured pIC50 of the molecule COc1ccc2oc(-c3nc(C(=O)NC(=N)N)c(N)nc3N)cc2c1 is ____.
6.33

Fill blank: measured pIC50 of the molecule N=C(N)NC(=O)c1nc(-c2cc3ccccc3o2)c(N2CCCOCC2)nc1N is ____.
6.83

Fill blank: measured pIC50 of the molecule Cc1ccc2oc(-c3nc(C(=O)NC(=N)N)c(N)nc3N)cc2c1 is ____.
5.98

Fill blank: measured pIC50 of the molecule N=C(N)NC(=O)c1nc(-c2cc3ccccc3o2)c(N2CCCCC2)nc1N is ____.
5.73

Fill blank: measured pIC50 of the molecule COc1ncc(-c2nc(C(=O)NC(=N)N)c(N)nc2N)cn1 is ____.
6.48

Fill blank: measured pIC50 of the molecule N=C(N)NC(=O)c1nc(-c2cc3ncccc3o2)c(N2CCCCCC2)nc1N is ____.
7.42

Fill blank: measured pIC50 of the molecule N=C(N)NC(=O)c1nc(-c2ccc(C(F)(F)F)cc2)c(N2CCCC2)nc1N is ____.
5.21

Fill blank: measured pIC50 of the molecule N=C(N)NC(=O)c1nc(-c2ccc(C(F)(F)F)cc2)c(C2CC2)nc1N is ____.
4.79

Fill blank: measured pIC50 of the molecule N=C(N)NC(=O)c1nc(-c2ccc(C(F)(F)F)cc2)c(N2CCCCCC2)nc1N is ____.
5.16

###

Target: NHE1 (Homo sapiens, UniProt P19634)
Construct: endogenous in cells; host or cells: MDA-MB-231
Sequence (P19634 whole entry): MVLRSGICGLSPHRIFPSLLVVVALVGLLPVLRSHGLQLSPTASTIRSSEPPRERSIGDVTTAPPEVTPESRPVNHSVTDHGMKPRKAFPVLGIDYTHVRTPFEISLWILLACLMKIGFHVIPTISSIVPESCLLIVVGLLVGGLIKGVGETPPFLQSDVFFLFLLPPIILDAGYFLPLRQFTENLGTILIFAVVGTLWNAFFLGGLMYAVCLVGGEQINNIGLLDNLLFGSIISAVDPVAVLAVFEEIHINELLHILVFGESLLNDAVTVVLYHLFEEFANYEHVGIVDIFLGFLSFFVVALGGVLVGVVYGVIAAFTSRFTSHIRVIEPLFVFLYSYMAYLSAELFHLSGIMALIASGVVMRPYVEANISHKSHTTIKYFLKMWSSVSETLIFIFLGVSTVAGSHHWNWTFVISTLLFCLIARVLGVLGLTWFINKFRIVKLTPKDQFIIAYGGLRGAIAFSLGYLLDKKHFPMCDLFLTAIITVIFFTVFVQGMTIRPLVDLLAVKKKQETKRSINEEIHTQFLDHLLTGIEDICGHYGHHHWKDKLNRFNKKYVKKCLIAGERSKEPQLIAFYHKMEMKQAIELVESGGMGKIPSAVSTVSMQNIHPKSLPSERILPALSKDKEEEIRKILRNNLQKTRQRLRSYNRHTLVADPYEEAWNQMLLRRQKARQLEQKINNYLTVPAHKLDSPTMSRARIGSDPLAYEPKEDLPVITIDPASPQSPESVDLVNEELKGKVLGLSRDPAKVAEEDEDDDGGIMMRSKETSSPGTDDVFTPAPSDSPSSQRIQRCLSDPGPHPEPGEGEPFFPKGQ
Assay: Cuvette-based NHE1 inhibition assay
Format: cell-based
Conditions: MDA-MB-231 cells, cuvette assay; read-out: NHE1 Cuvette IC50
Method: Performed as described in [53]. Briefly, MDA-MB-231 cells were grown to ~80–90% confluence on glass coverslips. Then, 3 µM BCECF were loaded into cells in 400 µL serum-free medium and the fluorescence was measured using a PTI Deltascan spectrofluorometer (Horiba Ltd., Kyoto, Japan). […] A calibration curve of pHi fluorescence was performed for every sample using nigericin [55]. […]
Would you mind telling me the reported IC50 of each entry?
Write the value in nM as a bare number.

Fill blank: measured IC50 of the compound COc1ncc(-c2nc(C(=O)NC(=N)N)c(N)nc2N2CCCCCC2)cn1 is ____.
21500

Fill blank: measured IC50 of the compound N=C(N)NC(=O)c1nc(Cl)c(N2CCCOCC2)nc1N is ____.
93

Fill blank: measured IC50 of the compound N=C(N)NC(=O)c1nc(Cl)c(N2CCOCC2)nc1N is ____.
166

Fill blank: measured IC50 of the compound N=C(N)NC(=O)c1nc(-c2ccc(C(F)(F)F)cc2)c(N2CCCC2)nc1N is ____.
441

Fill blank: measured IC50 of the compound N=C(N)NC(=O)c1nc(-c2cncnc2)c(N2CCCCCC2)nc1N is ____.
397

###

Molecular target: NHE1 (Homo sapiens)
Construct: endogenous in cells; host or cells: MDA-MB-231
Assay: Plate-based NHE1 inhibition assay (BCECF pHi recovery, 96-well plate reader)
Format: cell-based
Conditions: 1 μM, MDA-MB-231 cells, plate reader
Metric name: inhibition at 1 µM (%)
Write the value in % as a bare number.

Fill blank: measured inhibition at 1 µM of the compound N=C(N)NC(=O)c1nc(-c2cc3cc(Cl)ccc3o2)c(N)nc1N is ____.
0

Fill blank: measured inhibition at 1 µM of the compound N=C(N)NC(=O)c1nc(-c2cc3cc(F)ccc3o2)c(N2CCCCCC2)nc1N is ____.
22

Fill blank: measured inhibition at 1 µM of the compound N=C(N)NC(=O)c1nc(-c2cc3cc(F)cc(F)c3o2)c(N)nc1N is ____.
7

Fill blank: measured inhibition at 1 µM of the compound CCN(c1nc(N)c(C(=O)NC(=N)N)nc1-c1cc2ccccc2o1)C(C)C is ____.
8

Fill blank: measured inhibition at 1 µM of the compound N=C(N)NC(=O)c1nc(-c2cc3ccccc3o2)c(N2CCCCC2)nc1N is ____.
69

Fill blank: measured inhibition at 1 µM of the compound Cc1ccc2oc(-c3nc(C(=O)NC(=N)N)c(N)nc3N)cc2c1 is ____.
0

Fill blank: measured inhibition at 1 µM of the compound N=C(N)NC(=O)c1nc(Cl)c(N2CCCCCC2)nc1N [HMA, 5-(N,N-hexamethylene)amiloride, reference compound] is ____.
66

Fill blank: measured inhibition at 1 µM of the compound N=C(N)NC(=O)c1nc(-c2ccc(C(F)(F)F)cc2)c(N2CCCC2)nc1N is ____.
95

Fill blank: measured inhibition at 1 µM of the compound N=C(N)NC(=O)c1nc(-c2ccc(C(F)(F)F)cc2)c(C2CC2)nc1N is ____.
28

Fill blank: measured inhibition at 1 µM of the compound N=C(N)NC(=O)c1nc(-c2cc3ccccc3o2)c(N2CCCOCC2)nc1N is ____.
55

Fill blank: measured inhibition at 1 µM of the compound COc1ncc(-c2nc(C(=O)NC(=N)N)c(N)nc2N)cn1 is ____.
0

Fill blank: measured inhibition at 1 µM of the compound N=C(N)NC(=O)c1nc(-c2cc3cc(Br)ccc3o2)c(N2CCCCCC2)nc1N is ____.
0

Fill blank: measured inhibition at 1 µM of the compound N=C(N)NC(=O)c1nc(-c2cc3ccccc3o2)c(NC2CCCC2)nc1N is ____.
0
